List of pIC50 values.
Target: PTP-1B (Homo sapiens, UniProt P18031)
Construct: PTP-1B (purified, 1 mg/mL) as a 1:250 dilution
Sequence (P18031 1-321 limits assumed): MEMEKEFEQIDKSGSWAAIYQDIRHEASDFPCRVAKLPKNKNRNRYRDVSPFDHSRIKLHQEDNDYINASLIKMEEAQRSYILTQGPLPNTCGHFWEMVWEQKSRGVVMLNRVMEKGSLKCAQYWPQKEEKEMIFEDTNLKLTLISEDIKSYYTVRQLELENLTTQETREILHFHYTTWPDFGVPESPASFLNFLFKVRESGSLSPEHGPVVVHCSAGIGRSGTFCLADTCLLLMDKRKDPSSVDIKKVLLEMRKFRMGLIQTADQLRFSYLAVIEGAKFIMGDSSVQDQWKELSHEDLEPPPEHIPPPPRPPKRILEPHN
Test: pNPP assay for tyrosine phosphatase inhibitory activity
Format: biochemical
Details: Table 1; pNPP substrate 10 mM, 30° C., 10 minutes, absorbance at 405 nm
pIC50: −log10 of the molar value.

Past entries and their recorded results:
Ask | Name the recorded pIC50 for COC(=O)c1ccccc1-c1ccc(-c2cnc(N(Cc3ccc(C(F)(F)P(=O)(O)O)c(Br)c3)c3ccc(Cl)c(Cl)c3)o2)cc1 [Example 15] .
Reply | 5.00 to 6.00

Ask | Name the recorded pIC50 for O=C(O)c1ccccc1-c1ccc(-c2cnc(N(Cc3ccc(C(F)(F)P(=O)(O)O)c(Br)c3)c3ccc(Cl)c(Cl)c3)o2)cc1 [Example 17] .
Reply | 6.30 to 7.00

Ask | Name the recorded pIC50 for O=C(O)c1ccccc1-c1cccc(-c2cnc(N(Cc3ccc(C(F)(F)P(=O)(O)O)c(Br)c3)c3ccc(Cl)c(Cl)c3)o2)c1 [Example 20] .
Reply | 6.30 to 7.00

Let us move to another entry and its pIC50.
Ask | Name the recorded pIC50 for COC(=O)c1cccc(Oc2cccc(-c3nnc(N(Cc4ccc(C(F)(F)P(=O)(O)O)c(Br)c4)c4ccc(Cl)c(Cl)c4)o3)c2)c1 [Example 24] .
Reply | 6.00 to 6.30

----------
List of pIC50 values.
molecular target: PTP-1B (Homo sapiens); construct: PTP-1B (purified, 1 mg/mL) as a 1:250 dilution; experiment: pNPP assay for tyrosine phosphatase inhibitory activity; format: biochemical; details: Table 1; pNPP substrate 10 mM, 30° C., 10 minutes, absorbance at 405 nm
pIC50: −log10 of the molar value.

Past entries and their recorded results:
Ask | Name the recorded pIC50 for O=C(O)c1cccc(Oc2cccc(-c3nnc(N(Cc4ccc(C(F)(F)P(=O)(O)O)c(Br)c4)c4ccc(Cl)c(Cl)c4)o3)c2)c1 [Example 25] .
Reply | 6.30 to 7.00

Ask | Name the recorded pIC50 for CC(C)(C)C(=O)OCOP(=O)(O)C(F)(F)c1ccc(CN(c2ccc(Cl)c(Cl)c2)c2ncc(-c3ccc(S(C)(=O)=O)cc3)o2)cc1Br [Example 11] .
Reply | 4.00 to 5.00

Ask | Name the recorded pIC50 for CS(=O)(=O)c1ccc(-c2cnc(N(Cc3ccc(/C=C/C(=O)O)c(Br)c3)c3ccc(Cl)c(Cl)c3)o2)cc1 .
Reply | 4.00 to 5.00

Ask | Name the recorded pIC50 for O=C(O)c1ccccc1Oc1cccc(-c2cnc(N(Cc3ccc(C(F)(F)P(=O)(O)O)c(Br)c3)c3ccc(Cl)c(Cl)c3)o2)c1 [Example 18] .
Reply | 6.30 to 7.00

Ask | Name the recorded pIC50 for COC(=O)c1ccccc1Oc1cccc(-c2cnc(N(Cc3ccc(C(F)(F)P(=O)(O)O)c(Br)c3)c3ccc(Cl)c(Cl)c3)o2)c1 [Example 14] .
Reply | 5.00 to 6.00

Let us move to another entry and its pIC50.
Ask | Name the recorded pIC50 for CS(=O)(=O)c1ccc(-c2cnc(N(Cc3ccc(OCC(=O)O)c(Br)c3)c3ccc(Cl)c(Cl)c3)o2)cc1 .
Reply | 4.00 to 5.00
